molecular target: μ-receptor (Homo sapiens (Human)); assay: Receptor binding, competitive displacement of [3H]DAMGO; details: 0.25 nM [3H]DAMGO, CHO cell membrane protein, 60 min at 25° C.
pKi: −log10 of the molar value. Counter-ions that a name gives are not always drawn.
measured-property: pKi

Below, each entry is followed by its recorded pKi result.
COC1(c2ccnc(C(N)=O)c2)C2CCCC1CN(CCC1CC1)C2 (stereo not shown) [Compound 86, hydrochloride] :: 8.30 to 9.00
COC1(c2ccnc(C(N)=O)c2)C2CCCC1CN(C(C)C)C2 (stereo not shown) [Compound 76, hydrochloride] :: 8.30 to 9.00
COC1(c2ccnc(C(N)=O)c2)C2CCCC1CN(Cc1cccc(=O)[nH]1)C2 (stereo not shown) [Compound 120, hydrochloride] :: < 8.30

Now examine the next entry.
stdin: Give the reported value of pKi for this record: COC1(c2ccc(C(N)=O)cc2)C2CCCC1CN(CC1CC1)C2 (stereo not shown) [Compound 31, hydrochloride]
stdout: < 8.30
